- SYSTEM_UNDER_TEST: SGLT-2 (Homo sapiens)
- Construct: expressed in transfected cells
- Sequence (P31639 whole entry): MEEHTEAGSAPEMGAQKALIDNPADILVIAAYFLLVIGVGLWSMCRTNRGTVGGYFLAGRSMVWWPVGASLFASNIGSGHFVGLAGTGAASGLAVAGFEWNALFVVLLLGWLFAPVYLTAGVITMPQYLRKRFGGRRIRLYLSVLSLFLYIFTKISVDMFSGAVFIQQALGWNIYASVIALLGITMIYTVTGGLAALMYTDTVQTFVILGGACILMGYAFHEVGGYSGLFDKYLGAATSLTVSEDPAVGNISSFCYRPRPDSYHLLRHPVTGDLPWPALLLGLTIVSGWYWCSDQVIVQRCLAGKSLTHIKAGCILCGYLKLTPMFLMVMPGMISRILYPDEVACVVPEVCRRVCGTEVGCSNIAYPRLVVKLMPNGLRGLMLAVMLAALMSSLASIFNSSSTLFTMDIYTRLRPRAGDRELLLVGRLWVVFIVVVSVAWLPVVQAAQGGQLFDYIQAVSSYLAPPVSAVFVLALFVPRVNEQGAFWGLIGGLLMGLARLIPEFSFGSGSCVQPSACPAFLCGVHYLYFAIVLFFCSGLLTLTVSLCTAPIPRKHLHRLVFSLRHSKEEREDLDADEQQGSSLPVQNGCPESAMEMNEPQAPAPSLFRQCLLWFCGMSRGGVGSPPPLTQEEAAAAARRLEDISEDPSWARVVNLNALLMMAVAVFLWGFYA
- METHOD_NOTES: SGLT-2 activity measurement ([14C]-AMG uptake in CHO cells expressing human SGLT2)
- Type: cell-based
- CONDITION_DETAILS: CHO cells expressing human SGLT2, 0.5 μm [14C]-AMG, 37° C. for 1 hour
This section presents compounds with their documented log10(IC50) values.
QUANTITY_KIND: log10(IC50) (log10 of the value in nM)

| COMPOUND | SYSTEM_UNDER_TEST | log10(IC50) |
| --- | --- | --- |
| CCOc1ccc(Cc2cc([C@]34OC[C@](C(C)(C)O)(O3)[C@@H](O)[C@H](O)[C@H]4O)ccc2Cl)cc1F | SGLT-2 (Homo sapiens) | -0.07 |
| CCOc1ccc(Cc2cc([C@]34OC[C@](C5CO5)(O3)[C@@H](O)[C@H](O)[C@H]4O)ccc2Cl)cc1 (some centres unmarked) | SGLT-2 (Homo sapiens) | 0.84 |
| CCOc1ccc(Cc2cc([C@]34OC[C@](C(C)O)(O3)[C@@H](O)[C@H](O)[C@H]4O)ccc2Cl)cc1F (some centres unmarked) | SGLT-2 (Homo sapiens) | 0.10 |
| COc1ccc(Cc2cc([C@]34OC[C@](C(C)O)(O3)[C@@H](O)[C@H](O)[C@H]4O)ccc2Cl)c(F)c1F (some centres unmarked) | SGLT-2 (Homo sapiens) | -0.09 |
| CCOc1ccc(Cc2cc([C@]34OC[C@](C(O)CN)(O3)[C@@H](O)[C@H](O)[C@H]4O)ccc2Cl)cc1 (some centres unmarked) | SGLT-2 (Homo sapiens) | 3.57 |
| CCOc1ccc(Cc2cc([C@]34OC[C@](C(C)O)(O3)[C@@H](O)[C@H](O)[C@H]4O)ccc2Cl)cc1 (some centres unmarked) | SGLT-2 (Homo sapiens) | 0.22 |
| CCOc1ccc(Cc2cc([C@]34OC[C@](C5(O)CC5)(O3)[C@@H](O)[C@H](O)[C@H]4O)ccc2Cl)cc1 | SGLT-2 (Homo sapiens) | 0.56 |
| COc1ccc(Cc2cc([C@]34OC[C@](C(C)(C)O)(O3)[C@@H](O)[C@H](O)[C@H]4O)ccc2Cl)c(F)c1F | SGLT-2 (Homo sapiens) | 0.26 |
| CCOc1ccc(Cc2cc([C@]34OC[C@](C(O)CNC)(O3)[C@@H](O)[C@H](O)[C@H]4O)ccc2Cl)cc1 (some centres unmarked) | SGLT-2 (Homo sapiens) | 2.70 |
| CCOc1ccc(Cc2cc([C@]34OC[C@](C(C)O)(O3)[C@@H](O)[C@H](O)[C@H]4O)ccc2Cl)c(F)c1F (some centres unmarked) | SGLT-2 (Homo sapiens) | 0.36 |
| CCOc1ccc(Cc2cc([C@]34OC(C)[C@](CO)(O3)[C@@H](O)[C@H](O)[C@H]4O)ccc2Cl)cc1 (some centres unmarked) | SGLT-2 (Homo sapiens) | 1.71 |
| CC(C)(O)[C@@]12CO[C@@](c3ccc(Cl)c(Cc4ccc(OCC(F)F)cc4)c3)(O1)[C@H](O)[C@@H](O)[C@@H]2O | SGLT-2 (Homo sapiens) | 0.54 |
| CC(C)(O)[C@@]12CO[C@@](c3ccc(Cl)c(Cc4ccc(OCC(F)(F)F)cc4)c3)(O1)[C@H](O)[C@@H](O)[C@@H]2O | SGLT-2 (Homo sapiens) | 0.56 |
| CCOc1ccc(Cc2cccc([C@]34OC[C@](C(C)O)(O3)[C@@H](O)[C@H](O)[C@H]4O)c2)cc1 (some centres unmarked) | SGLT-2 (Homo sapiens) | 1.08 |

###

- SYSTEM_UNDER_TEST: SGLT-2 (Homo sapiens)
- Construct: expressed in transfected cells
- METHOD_NOTES: SGLT-2 activity measurement ([14C]-AMG uptake in CHO cells expressing human SGLT2)
- Assay type: cell-based
- CONDITION_DETAILS: CHO cells expressing human SGLT2, 0.5 μm [14C]-AMG, 37° C. for 1 hour
This section presents compounds with their documented log10 IC50 values.
QUANTITY_KIND: log10 IC50 (log10 of the value in nM)

| COMPOUND | READING |
| --- | --- |
| CCOc1ccc(Cc2cc([C@]34OC[C@](C(C)(C)O)(O3)[C@@H](O)[C@H](O)[C@H]4O)ccc2Cl)cc1 | 0.06 |
| CCOc1ccc(Cc2cc([C@]34OC[C@](C(C)OC(=O)OC(C)C)(O3)[C@@H](O)[C@H](O)[C@H]4O)ccc2Cl)cc1 (stereo partly shown) | 1.64 |
| CCOc1ccc(Cc2cc([C@]34OC[C@](C(C)(C)O)(O3)[C@@H](O)[C@H](O)[C@H]4O)ccc2Cl)c(F)c1F | 0.34 |
| C#CC(O)C12CO[C@@](c3ccc(Cl)c(Cc4ccc(OCC)cc4)c3)(O1)[C@H](O)[C@@H](O)[C@@H]2O (stereo in doubt) | 0.97 |
| CCOc1ccc(Cc2cc([C@]34OCC(C(O)CC)(O3)[C@@H](O)[C@H](O)[C@H]4O)ccc2Cl)cc1 (stereo in doubt) | 0.99 |
| CC(O)[C@@]12CO[C@@](c3ccc(Cl)c(Cc4ccc(OCC(F)(F)F)cc4)c3)(O1)[C@H](O)[C@@H](O)[C@@H]2O (stereo partly shown) | 0.09 |
| CCOC(=O)OC(C)[C@@]12CO[C@@](c3ccc(Cl)c(Cc4ccc(OCC)cc4)c3)(O1)[C@H](O)[C@@H](O)[C@@H]2O (stereo partly shown) | 1.10 |
| CCOc1ccc(Cc2cc([C@]34OC[C@](C(C)O)(O3)[C@H](O)[C@H](O)[C@H]4O)ccc2Cl)cc1 (stereo partly shown) | 1.10 |
| CC(C)(O)[C@@]12CO[C@@](c3ccc(Cl)c(Cc4ccc(OC(F)(F)F)cc4)c3)(O1)[C@H](O)[C@@H](O)[C@@H]2O | 0.47 |
| CCOc1ccc(C(O)c2cc([C@]34OC[C@](C(C)O)(O3)[C@@H](O)[C@H](O)[C@H]4O)ccc2Cl)cc1 (stereo partly shown) | 0.16 |

###

- SYSTEM_UNDER_TEST: SGLT-1 (Homo sapiens, UniProt P13866)
- Construct: expressed in transfected cells
- Sequence (P13866 whole entry): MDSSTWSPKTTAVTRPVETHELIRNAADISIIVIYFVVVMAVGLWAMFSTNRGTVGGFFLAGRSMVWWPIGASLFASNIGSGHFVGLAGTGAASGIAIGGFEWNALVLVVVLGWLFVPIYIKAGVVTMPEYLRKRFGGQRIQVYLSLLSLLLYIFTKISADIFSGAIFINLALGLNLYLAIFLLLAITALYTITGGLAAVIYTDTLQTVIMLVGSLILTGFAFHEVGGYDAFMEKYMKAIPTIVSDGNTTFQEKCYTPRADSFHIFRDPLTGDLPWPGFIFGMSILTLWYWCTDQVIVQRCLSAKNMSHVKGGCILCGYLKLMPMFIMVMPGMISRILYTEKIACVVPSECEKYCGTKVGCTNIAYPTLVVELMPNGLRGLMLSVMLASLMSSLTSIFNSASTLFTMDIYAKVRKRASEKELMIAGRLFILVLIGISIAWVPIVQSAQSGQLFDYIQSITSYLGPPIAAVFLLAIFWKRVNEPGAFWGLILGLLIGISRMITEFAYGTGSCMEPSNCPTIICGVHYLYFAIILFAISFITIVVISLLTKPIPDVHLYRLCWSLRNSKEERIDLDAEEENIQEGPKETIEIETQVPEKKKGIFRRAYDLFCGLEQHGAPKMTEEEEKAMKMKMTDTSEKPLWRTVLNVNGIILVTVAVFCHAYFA
- METHOD_NOTES: SGLT-1 activity measurement ([14C]-AMG uptake in CHO cells expressing human SGLT1)
- Assay type: cell-based
- CONDITION_DETAILS: CHO cells expressing human SGLT1, 0.5 μm [14C]-AMG, 37° C. for 1 hour
This section presents compounds with their documented log10 of IC50 values.
QUANTITY_KIND: log10 of IC50 (log10 of the value in nM)

| COMPOUND | SYSTEM_UNDER_TEST | log10 of IC50 |
| --- | --- | --- |
| COc1ccc(Cc2cc([C@]34OC[C@](C(C)O)(O3)[C@@H](O)[C@H](O)[C@H]4O)ccc2Cl)c(F)c1F (some centres unmarked) | SGLT-1 (Homo sapiens, UniProt P13866) | 2.08 |
| CCOc1ccc(Cc2cc([C@]34OC[C@](C5(O)CC5)(O3)[C@@H](O)[C@H](O)[C@H]4O)ccc2Cl)cc1 | SGLT-1 (Homo sapiens, UniProt P13866) | 4.43 |
| CCOc1ccc(Cc2cc([C@]34OC[C@](C(C)O)(O3)[C@@H](O)[C@H](O)[C@H]4O)ccc2Cl)cc1F (some centres unmarked) | SGLT-1 (Homo sapiens, UniProt P13866) | 2.26 |
| COc1ccc(Cc2cc([C@]34OC[C@](C(C)(C)O)(O3)[C@@H](O)[C@H](O)[C@H]4O)ccc2Cl)c(F)c1F | SGLT-1 (Homo sapiens, UniProt P13866) | 3.02 |
| CCOc1ccc(Cc2cc([C@]34OC[C@](C(C)(C)O)(O3)[C@@H](O)[C@H](O)[C@H]4O)ccc2Cl)cc1 | SGLT-1 (Homo sapiens, UniProt P13866) | 2.04 |
| CC#CC(O)[C@@]12CO[C@@](c3ccc(Cl)c(Cc4ccc(OCC)cc4)c3)(O1)[C@H](O)[C@@H](O)[C@@H]2O (some centres unmarked) | SGLT-1 (Homo sapiens, UniProt P13866) | 2.92 |
| CC(C)(O)[C@@]12CO[C@@](c3ccc(Cl)c(Cc4ccc(OCC(F)F)cc4)c3)(O1)[C@H](O)[C@@H](O)[C@@H]2O | SGLT-1 (Homo sapiens, UniProt P13866) | 3.75 |
| CCOc1ccc(Cc2cc([C@]34OC[C@](C(C)(C)O)(O3)[C@@H](O)[C@H](O)[C@H]4O)ccc2Cl)cc1F | SGLT-1 (Homo sapiens, UniProt P13866) | 2.23 |
| CC(C)(O)[C@@]12CO[C@@](c3ccc(Cl)c(Cc4ccc(OCC(F)(F)F)cc4)c3)(O1)[C@H](O)[C@@H](O)[C@@H]2O | SGLT-1 (Homo sapiens, UniProt P13866) | 2.54 |
| CCOc1ccc(Cc2cc([C@]34OC[C@](C(C)O)(O3)[C@@H](O)[C@H](O)[C@H]4O)ccc2Cl)c(F)c1F (some centres unmarked) | SGLT-1 (Homo sapiens, UniProt P13866) | 2.75 |
| CCOc1ccc(Cc2cc([C@]34OC[C@](C(C)O)(O3)[C@H](O)[C@H](O)[C@H]4O)ccc2Cl)cc1 (some centres unmarked) | SGLT-1 (Homo sapiens, UniProt P13866) | 3.53 |
| CC(O)[C@@]12CO[C@@](c3ccc(Cl)c(Cc4ccc(OC(F)(F)F)cc4)c3)(O1)[C@H](O)[C@@H](O)[C@@H]2O (some centres unmarked) | SGLT-1 (Homo sapiens, UniProt P13866) | 2.46 |
| CC(O)[C@@]12CO[C@@](c3ccc(Cl)c(Cc4ccc(OCC(F)(F)F)cc4)c3)(O1)[C@H](O)[C@@H](O)[C@@H]2O (some centres unmarked) | SGLT-1 (Homo sapiens, UniProt P13866) | 2.91 |
| CC(C)(O)[C@@]12CO[C@@](c3ccc(Cl)c(Cc4ccc(OC(F)(F)F)cc4)c3)(O1)[C@H](O)[C@@H](O)[C@@H]2O | SGLT-1 (Homo sapiens, UniProt P13866) | 3.12 |
| CCOc1ccc(Cc2cc([C@]34OC[C@](C(C)OC(=O)OC(C)C)(O3)[C@@H](O)[C@H](O)[C@H]4O)ccc2Cl)cc1 (some centres unmarked) | SGLT-1 (Homo sapiens, UniProt P13866) | 3.58 |
| CCOc1ccc(Cc2cc([C@]34OC[C@](C(C)O)(O3)[C@@H](O)[C@H](O)[C@H]4O)ccc2Cl)cc1 (some centres unmarked) | SGLT-1 (Homo sapiens, UniProt P13866) | 2.41 |
| C#CC(O)C12CO[C@@](c3ccc(Cl)c(Cc4ccc(OCC)cc4)c3)(O1)[C@H](O)[C@@H](O)[C@@H]2O (stereo in doubt) | SGLT-1 (Homo sapiens, UniProt P13866) | 3.62 |

Cited source for all entries: patent US9394329B2
